Tested on: THRa homodimer (NR concentration 90 nM)
experimentSummary: PBM binding z-score (relative to random genomic background probes); higher = stronger binding; sequences stand for … in GC…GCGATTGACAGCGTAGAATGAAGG
readoutType: PBM binding z-score

Consider the worked cases shown below.
INSERT INTO assay_data (constructsequence, studytarget, measured) VALUES
  ('CCTAGCAGGACAATCTGGGTCACTCAAGGCTTGA', 'THRa homodimer (NR concentration 90 nM)', 0.761),
  ('ATCTCTAGGTAAAAGTTCACTGAATCCCGAGGAT', 'THRa homodimer (NR concentration 90 nM)', 0.473),
  ('CAAGACAGGTGAGAAGGTAACTCAGCCTCGATTA', 'THRa homodimer (NR concentration 90 nM)', 0.475);

Continue with the next sequence.
Sure, the documented PBM binding z-score for "TTACCAAGGTGAGGTGAGGTCGTTGATCCAACTC" is 2.84

* * *

Quick list: PBM binding z-score per entry.
Test system: PXR homodimer (NR concentration 270 nM)
experimentSummary: PBM binding z-score (relative to random genomic background probes); higher = stronger binding; sequences stand for … in GC…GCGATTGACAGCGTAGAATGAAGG
Give a plain numeric answer without units written out.

Consider the worked cases shown below.
INSERT INTO assay_data (constructsequence, readouttype, measured) VALUES
  ('CGGCAAAGTTCAACTAAGGTAACGTAAAGCACGC', 'PBM binding z-score', 2.72),
  ('CATACAGGGTCAGCTAGGCCAAAGTAGGGACGGC', 'PBM binding z-score', 0.23),
  ('CCTACTGGGCCAAGGTCAATGATCAGTCAAAGCA', 'PBM binding z-score', 0.323);

Sure, the documented PBM binding z-score for "CGCACGAGGGCATGAGTTGATAGCAAATGCCGAT" is -0.109

Sure, the documented PBM binding z-score for "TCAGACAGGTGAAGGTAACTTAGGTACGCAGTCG" is 0.206

Sure, the documented PBM binding z-score for "CAAACTAGGTCACTGGAAGGTCAAAGTCCGCATG" is 2.12

Sure, the documented PBM binding z-score for "TGAATGAGGTTATAAGATCTGGGAACGTTGCAAA" is -0.0184

Sure, the documented PBM binding z-score for "ATCTCTAGGTAACAAGTTCTGTGAAAGAGAGGAC" is 0.424

* * *

Quick list: PBM binding z-score per entry.
Tested on: LXRb homodimer (NR concentration 270 nM)
experimentSummary: PBM binding z-score (relative to random genomic background probes); higher = stronger binding; sequences stand for … in GC…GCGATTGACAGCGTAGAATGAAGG
Give a plain numeric answer without units written out.

INSERT INTO assay_data (constructsequence, readouttype, measured) VALUES
  ('CGTCCAAGGGCAGAGAGGTCAGTGAATGCCGAGT', 'PBM binding z-score', -0.506),
  ('CCAGACAGGTGAGAAGGTAACTTAGCCTCGATTA', 'PBM binding z-score', -0.355),
  ('TAGTCTAGGTCATTCAGGGGCCAGTATAGAAAGC', 'PBM binding z-score', 3.06),
  ('CTACCAAGGTGAACAAGGTCGTTGAATACTATTC', 'PBM binding z-score', -0.659),
  ('GCAGACAGGTGAAACGCAGGGAACTCAGGGTGGC', 'PBM binding z-score', -1.21),
  ('GATACAGGTTCAAGGCCAGAGTACGCGTATTGAT', 'PBM binding z-score', -0.271),
  ('GCGACTGGGGCATCAGCAGGTTACCATAACTTAA', 'PBM binding z-score', -0.886),
  ('AGTAGTTGGTCAGCTGAGGTCACACACAATTCGG', 'PBM binding z-score', 0.79),
  ('TCTTGTAGATCAAAGGTTAAGGAAGCCGAAGCCT', 'PBM binding z-score', -0.272),
  ('CGTCAAAGTTCAACTAAGGTAACCTAAAGCACGC', 'PBM binding z-score', 2.21);

Sure, the documented PBM binding z-score for "CCGACTGGGGAAAGGTTACCATAACGCACAGCCA" is -0.554

Sure, the documented PBM binding z-score for "CAAGACAGGTGAAAGGTAACTCAGTCTGGTACGC" is 0.289

Sure, the documented PBM binding z-score for "CGTCAATGTTCAAGGTAACGTAACAGAAAGCAGC" is 0.0791

Sure, the documented PBM binding z-score for "ATCGAAAGGTCGAAGCTGAGTATACCCACCCGAA" is 0.738

Sure, the documented PBM binding z-score for "AATCAAAGTTCATCTAGGTAACGTAAGATATGCT" is 2.37

Sure, the documented PBM binding z-score for "CTACCAAGATGAACAAGGTCGTTGATTACTATTC" is 0.267

Sure, the documented PBM binding z-score for "GCTTACGGGTCAAAGGTTATAGAATGAATAGAAT" is 0.667

Sure, the documented PBM binding z-score for "GATACAGGGTCACGGCCAGAGTACGCGTATTGAT" is -0.171

Sure, the documented PBM binding z-score for "CCTTACGGGACACGAGGTTATAGCACGACGAGCG" is -0.204

Sure, the documented PBM binding z-score for "ATATGTAGGTGATCGGGTCATTCAGTTTGCGCAT" is 0.875

Sure, the documented PBM binding z-score for "TCATATAGGTATACAGGTGAAAGTCCGTAAGTTA" is 0.257

Sure, the documented PBM binding z-score for "TATACAGGGTCAAAGGCCAGGGTACGAATGTCGA" is 2.5

Sure, the documented PBM binding z-score for "GATACAGGCTCAGCTAGAGGCCAGAGTATGGAAA" is -1.62

Sure, the documented PBM binding z-score for "TAGCCTAGGTCATCGGCCAGTATACCACGCGAAC" is 0.178

* * *

Test system: LXRa homodimer (NR concentration 270 nM)
experimentSummary: PBM binding z-score (relative to random genomic background probes); higher = stronger binding; sequences stand for … in GC…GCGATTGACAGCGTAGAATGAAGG
Quick list: PBM binding z-score per entry.
Give a plain numeric answer without units written out.

Consider the worked cases shown below.
INSERT INTO results (constructsequence, measured) VALUES
  ('GATACAGGGTCAGCTAGCGGCCAGAGTATGGAAA', -0.847),
  ('ATCGAAAGGTCGAGGGGAGTATAGAGAAAGGGAA', 0.308),
  ('AGAATGAGGTTATACGTAGATCAGGCAAGAAAGT', -0.142),
  ('TCTAGTTAGTCACGGAGGTCACACACGACGGGTA', 2.41);

Continue with the next sequence.
Sure, the documented PBM binding z-score for "CCTAGTTGGTCTGGAGGTCACACACCGGATATGA" is 3.63

* * *

System: THRa homodimer (NR concentration 90 nM)
experimentSummary: PBM binding z-score (relative to random genomic background probes); higher = stronger binding; sequences stand for … in GC…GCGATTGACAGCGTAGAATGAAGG
Quick list: PBM binding z-score per entry.
Give a plain numeric answer without units written out.

Sure, the documented PBM binding z-score for "ACTGACAGGTGATGAAGGTAACTCAGGCTATCAT" is -0.122

Sure, the documented PBM binding z-score for "CCTCTGAGGACAACAGGAGGTCAGAGCTGCCAGA" is 3.02

Sure, the documented PBM binding z-score for "TTTCAAAGTTCAAAGGTAACGTAAGTATCCACAC" is 0.252

Sure, the documented PBM binding z-score for "TTACGAAGGTGAAGGTCGTTGATCCCTCTGTAGA" is 0.135

Sure, the documented PBM binding z-score for "TCATATAGGTAAAGGTGACAGTCGAACGATATGA" is -0.0654

Sure, the documented PBM binding z-score for "CGTCCAAGGTCAATGCTAGGTCAGTGCAAGCATT" is 3.05

* * *

Test system: PPARg:RXRa 90nM:30nM, anti-RXR (NR concentration 90 nM, RXRa partner concentration 30 nM)
experimentSummary: PBM binding z-score (relative to random genomic background probes); higher = stronger binding; sequences stand for … in GC…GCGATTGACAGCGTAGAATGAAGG
Entries are grouped by PBM binding z-score into these classes: lower segment = under -0.07, middle segment = from -0.07 up to 0.4, upper segment = 0.4 and over

INSERT INTO assay_data (constructsequence, answerlabel) VALUES
  ('ATCTCAAGGTAACCAAGTTCAGTGAATGCCGAAC', 'middle segment'),
  ('CTCGAAAGGACGTGCTCAGGTGAGTATACCAAAC', 'lower segment'),
  ('ACTAGCAGGCTAAGTTTGGGTCACTCAAACAAAG', 'lower segment');

Any idea which band "TGAATGGGGTTATAAGATCAGGGAACGTTGCAAA" is in?
upper segment

Any idea which band "CCGTACGGGTCACTCCAGGTTATAGCATCGGAGT" is in?
upper segment

Any idea which band "AGAACGAGGGCAATGAGTTGATTGCACGGGTGGC" is in?
middle segment

Any idea which band "ACCGACAGGTGAGTGAAGGTAACTCAGCTGGACG" is in?
middle segment

Any idea which band "GCATATATGTAATACAAGGTGAAAGTCCGATTGT" is in?
upper segment

Any idea which band "AGAATGTGGTTAAGATCAGGGAAACAGAATACAT" is in?
lower segment

All figures here come from the supplement of paper PMC6555819.
